Settings: in methanol, 318.15 K
outcome_measure: solubility (mole fraction)
// print number alone

Field solubility (mole fraction) (entry OCC1(O)OC[C@@H](O)[C@@H](O)[C@H]1O (stereo partly specified) ) reads 0.0895

###

Details: in n-butyl acetate, 288.15 K
outcome_measure: solubility (mole fraction)
Please state the value as a number alone, without comment.

Entry OCC1(O)OC[C@@H](O)[C@@H](O)[C@H]1O (stereo partly specified) , solubility (mole fraction) reported as 0.000359

###

Conditions: in methyl acetate, 318.15 K
outcome_measure: solubility (mole fraction)
Enter a number only.

Record OCC1(O)OC[C@@H](O)[C@@H](O)[C@H]1O (stereo partly specified) , field solubility (mole fraction): 0.00187
